# ASSAY SUMMARY: Ratio of drug level in diet-induced obese mouse brain to plasma at 30 mg/kg, po qd for 3 weeks measured 2 hrs post last dose on day 23
# Format: ADME, organism-based
# STATED CONDITIONS: read-out: BPR
TEST READOUT: Kp at 2 h
The answer should be written as a number, with no unit following it.

## Input Returns the measured Kp at 2 h for the input molecule. Input: `C[C@@H](NC(=O)c1nn(-c2ccc(Cl)c(Cl)c2)c2c1CCCC/C2=C\c1ccc(F)cc1)c1ccccn1`
## Output 0.037

###

# TEST TARGET: UniProtKB P34972
# Sequence (P34972 whole entry): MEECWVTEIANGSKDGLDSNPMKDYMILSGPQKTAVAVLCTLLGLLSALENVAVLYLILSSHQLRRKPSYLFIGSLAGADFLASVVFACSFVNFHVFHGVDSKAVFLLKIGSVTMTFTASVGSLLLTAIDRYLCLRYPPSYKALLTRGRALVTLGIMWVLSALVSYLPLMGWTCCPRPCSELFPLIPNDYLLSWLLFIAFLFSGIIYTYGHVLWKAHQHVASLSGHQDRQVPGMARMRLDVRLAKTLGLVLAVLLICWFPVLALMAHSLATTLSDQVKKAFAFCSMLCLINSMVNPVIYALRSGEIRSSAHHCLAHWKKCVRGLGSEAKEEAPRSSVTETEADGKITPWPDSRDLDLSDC
# ASSAY SUMMARY: Inverse agonist activity at human cannabinoid receptor 2 expressed in HEK293 cells assessed as increase in forskolin-induced cAMP production preincubated with cells followed by forskolin stimulation measured after 30 mins in presence of D2-labeled cAMP and Eu3+-TBP-NHS cryptate by HTRF assay
pEC50: −log10 of the molar value.
TEST READOUT: pEC50

These solved cases illustrate the format of a correct answer.
[[record]]
smiles_string = "C[C@@H](NC(=O)c1nn(-c2ccc(Cl)cc2)c2c1CCCC/C2=C\\c1ccc(F)cc1)c1ccccn1"
test_target = "UniProtKB P34972"
measurement = "< 5.00"

[[record]]
smiles_string = "O=C(NC1(c2ccccn2)CC1)c1nn(-c2ccc(C(F)(F)F)cc2Cl)c2c1CCC/C2=C\\c1ccc(Cl)s1"
test_target = "UniProtKB P34972"
measurement = "< 5.00"

[[record]]
smiles_string = "C[C@@H](NC(=O)c1nn(-c2ccc(Cl)cc2Cl)c2c1CCCC/C2=C\\c1ccc(Cl)cn1)c1ccccn1"
test_target = "UniProtKB P34972"
measurement = 6.25

[[record]]
smiles_string = "C[C@@H](NC(=O)c1nn(-c2ccc(Cl)cc2)c2c1CCC/C2=C\\c1ccc(Cl)cc1)c1ccccn1"
test_target = "UniProtKB P34972"
measurement = "< 5.00"

[[record]]
smiles_string = "C[C@@H](NC(=O)c1nn(-c2ccc(Cl)cc2)c2c1CCC/C2=C\\c1ccc(Cl)cn1)c1ccccn1"
test_target = "UniProtKB P34972"
measurement = "< 5.00"

[[record]]
smiles_string = "O=C(NC1CCN(c2ccccn2)CC1)c1nn(-c2ccc(Cl)cc2Cl)c2c1CCC/C2=C\\c1ccc(F)cc1"
test_target = "UniProtKB P34972"
measurement = "< 4.96"


Turning now to a further compound:
## Input Find pEC50 (UniProtKB P34972) for the entry `C[C@@H](NC(=O)c1nn(-c2ccc(Cl)cc2Cl)c2c1CCC/C2=C\c1ccc(Cl)s1)c1ccccn1`
## Output 5.42

###

# TEST TARGET: Cannabinoid receptor 1 (Homo sapiens)
# Sequence (P21554 whole entry): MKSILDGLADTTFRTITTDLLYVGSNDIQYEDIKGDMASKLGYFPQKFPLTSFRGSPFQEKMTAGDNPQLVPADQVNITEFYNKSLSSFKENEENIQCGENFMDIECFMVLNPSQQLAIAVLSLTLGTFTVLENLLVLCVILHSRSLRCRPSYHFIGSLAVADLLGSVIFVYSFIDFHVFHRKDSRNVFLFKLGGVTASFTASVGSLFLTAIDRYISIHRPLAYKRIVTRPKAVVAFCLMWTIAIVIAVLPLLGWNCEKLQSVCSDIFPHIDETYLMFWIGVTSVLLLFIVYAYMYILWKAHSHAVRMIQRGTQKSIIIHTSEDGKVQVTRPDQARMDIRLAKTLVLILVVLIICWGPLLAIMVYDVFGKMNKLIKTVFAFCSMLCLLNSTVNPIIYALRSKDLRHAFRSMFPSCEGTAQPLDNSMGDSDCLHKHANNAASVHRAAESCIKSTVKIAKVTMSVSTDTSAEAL
# ASSAY SUMMARY: Inverse agonist activity at human cannabinoid receptor 1 expressed in HEK293 cells assessed as increase in forskolin-induced cAMP production preincubated with cells followed by forskolin stimulation measured after 30 mins in presence of D2-labeled cAMP and Eu3+-TBP-NHS cryptate by HTRF assay
TEST READOUT: EC50

These solved cases illustrate the format of a correct answer.
[[record]]
smiles_string = "C[C@@H](NC(=O)c1nn(-c2ccc(Cl)cc2)c2c1CCCC/C2=C\\c1ccc(F)cc1)c1ccccn1"
test_target = "Cannabinoid receptor 1 (Homo sapiens)"
measurement = "28 nM"

[[record]]
smiles_string = "O=C(NC1CCN(c2ccccn2)CC1)c1nn(-c2ccc(Cl)cc2Cl)c2c1CCC/C2=C\\c1ccc(F)cc1"
test_target = "Cannabinoid receptor 1 (Homo sapiens)"
measurement = "12 nM"

[[record]]
smiles_string = "C[C@@H](NC(=O)c1nn(-c2ccc(Cl)c(Cl)c2)c2c1CCCC/C2=C\\c1ccc(Cl)cc1)c1ccccn1"
test_target = "Cannabinoid receptor 1 (Homo sapiens)"
measurement = "37 nM"


Turning now to a further molecule:
## Input Returns the measured EC50 for the input molecule. Input: `C[C@@H](NC(=O)c1nn(-c2ccc(Cl)cc2Cl)c2c1CCCC/C2=C\c1ccc(F)cc1)c1ccccc1`
## Output 6 nM
